microsomal CLint at 1 uM for assorted molecules
# METHOD NOTES: Metabolic stability in human hepatic microsome
# Type: in vitro ADME
# CONDITION DESCRIPTION: human, microsomes, pH 7.4, CL NADPH(+)
Starred links: 1 amine or outer side, 2 acyl side, 3 side chain; linkers in the order of their positions; H or OH if unused. Positions of bridges follow the written chain, without caps; N, C: chain ends. Non-standard residues stand in square brackets, D forms with d. Residues, ends and D or L forms follow the SMILES beside them. *: point of attachment. NMeF = CN[C@@H](Cc1ccccc1)C(=O)O; NMeI = CC[C@H](C)[C@H](NC)C(=O)O; 3Pal = N[C@@H](Cc1cccnc1)C(=O)O; NMeβAla = CN(CCC(=O)[*:2])[*:1]; NMeL = CN[C@@H](CC(C)C)C(=O)O; NMeA = CN[C@@H](C)C(=O)O; Piperidide = C1CCN(*)CC1; dNMeA = CN[C@H](C)C(=O)O; β3hA = C[C@H](N)CC(=O)O; Sar = CNCC(=O)O; tBu = CC(C)(C)*
Write the answer as a number in µL/min/mg, unit excluded.

Here are 5 molecules together with their reported answers.
CC[C@H](C)[C@H]1C(=O)N(C)[C@@H](CC(C)C)C(=O)N(C)[C@@H](Cc2ccccc2)C(=O)N[C@@H]([C@@H](C)O)C(=O)N(C)[C@@H](Cc2ccccc2)C(=O)N(C)[C@@H](CC(C)C)C(=O)N(C)[C@@H](C)C(=O)N[C@H](C(=O)N2CCCCC2)CC(=O)N[C@H](C)C(=O)N[C@@H](C)C(=O)N(C)[C@@H](CC(C)C)C(=O)N1C [DP-99] ([dA]A[NMeL][NMeI][NMeL][NMeF]T[NMeF][NMeL][NMeA]D-Piperidide; lactam N-11)
52
CC[C@H](C)[C@H]1C(=O)N[C@@H](CC(C)C)C(=O)N(C)[C@@H](CC(C)C)C(=O)N[C@@H](COC(C)(C)C)C(=O)N(C)[C@@H](CC(C)C)C(=O)N[C@@H](C)CC(=O)N(C)CCC(=O)N[C@@H](Cc2ccccc2)C(=O)N(C)[C@@H](Cc2ccccc2)C(=O)N(C)[C@@H](CC(C)C)C(=O)N[C@@H]([C@@H](C)O)C(=O)N(C)[C@@H](C)C(=O)N1C [DP-758] (cyclo(F[NMeF][NMeL]T[NMeA][NMeI]L[NMeL]S(tBu)[NMeL][β3hA][NMeβAla]))
59
CC(C)C[C@@H]1NC(=O)[C@H](Cc2ccccc2)NC(=O)[C@H](CC(C)C)N(C)C(=O)[C@H](Cc2ccccc2)NC(=O)[C@@H](C)N(C)C(=O)C[C@H](C)NC(=O)[C@H](Cc2ccccc2)N(C)C(=O)CNC(=O)[C@H]([C@@H](C)O)NC(=O)[C@H](CC(C)C)NC1=O [DP-784] (cyclo(FLLTG[NMeF][β3hA][dNMeA]F[NMeL]))
97
CC(C)C[C@H]1C(=O)NCC(=O)N[C@H](C(=O)N(C)[C@@H](Cc2ccccc2)C(=O)N[C@@H](C)C(=O)N2CCCCC2)CC(=O)N[C@H](C)C(=O)N[C@@H]([C@@H](C)O)C(=O)N(C)[C@@H](C)C(=O)N(C)[C@@H](Cc2ccccc2)C(=O)N[C@@H](C(C)C)C(=O)N(C)[C@@H](Cc2ccccc2)C(=O)N1C [DP-307] ([dA]T[NMeA][NMeF]V[NMeF][NMeL]GD[NMeF]A-Piperidide; lactam N-9)
125
CC[C@H](C)[C@H]1C(=O)N[C@@H](C)C(=O)N[C@H](C(=O)N2CCCCC2)CC(=O)N[C@@H](C)C(=O)N[C@@H]([C@@H](C)O)C(=O)N(C)[C@@H](CC(C)C)C(=O)N[C@@H](CC(C)C)C(=O)N[C@@H](Cc2ccccc2)C(=O)N2CCC[C@H]2C(=O)N[C@@H](Cc2ccccc2)C(=O)N[C@@H](C(C)C)C(=O)N(C)CC(=O)N1C [DP-6] (AT[NMeL]LFPFV[Sar][NMeI]AD-Piperidide; lactam N-12)
35

Ask: Data request, read-out microsomal CLint at 1 uM, for CC[C@H](C)[C@H]1C(=O)N[C@@H](Cc2ccccc2)C(=O)N(C)[C@@H](Cc2ccccc2)C(=O)N[C@@H]([C@@H](C)O)C(=O)N2CCC[C@H]2C(=O)N[C@@H](CC(C)C)C(=O)N[C@H](C(=O)N2CCCCC2)CC(=O)N[C@@H](C)C(=O)N[C@@H](C(C)C)C(=O)N(C)CC(=O)N[C@@H](CC(C)C)C(=O)N(C)[C@@H](CC(C)C)C(=O)N[C@@H](C)C(=O)N1C [DP-1] (AV[Sar]L[NMeL]A[NMeI]F[NMeF]TPLD-Piperidide; lactam N-13)
Reply: 27

Ask: Subsequent entry: CC[C@H](C)[C@H](NC(=O)[C@H](C)NC(=O)CNC(=O)[C@@H]1CC(=O)N[C@@H](C)C(=O)N[C@@H](CC(C)C)C(=O)N[C@@H]([C@@H](C)O)C(=O)N(C)[C@@H](CC(C)C)C(=O)N[C@@H](Cc2ccccc2)C(=O)N2CCC[C@H]2C(=O)N[C@@H](C(C)C)C(=O)N[C@@H](Cc2ccccc2)C(=O)N(C)[C@@H](CC(C)C)C(=O)N1)C(=O)N1CCCCC1 [DP-42] (ALT[NMeL]FPVF[NMeL]DGAI-Piperidide; lactam N-10)
Reply: 17

Ask: Subsequent entry: CC(C)C[C@@H]1NC(=O)[C@H](Cc2cccnc2)NC(=O)[C@@H]2CCCN2C(=O)[C@H](C)NC(=O)[C@H](CC(C)C)N(C)C(=O)[C@H](Cc2ccccc2)NC(=O)[C@H](C)N(C)C(=O)[C@H](CC(C)C)N(C)C(=O)[C@H](Cc2ccccc2)NC(=O)[C@H](C)N(C)C(=O)C[C@@H](C(=O)N(C)[C@@H](Cc2ccccc2)C(=O)N[C@@H](C)C(=O)N2CCCCC2)NC1=O [DP-599] ([NMeA]F[NMeL][NMeA]F[NMeL]AP[3Pal]LD[NMeF]A-Piperidide; lactam N-11)
Reply: 84

Ask: Subsequent entry: CC[C@H](C)[C@H]1C(=O)NCC(=O)N(C)[C@@H](CC(C)C)C(=O)N[C@@H](CC(C)C)C(=O)N[C@H](C(=O)N2CCCCC2)CC(=O)N(C)CCC(=O)N(C)[C@@H](C)C(=O)N[C@@H](CC(C)C)C(=O)N[C@@H]([C@@H](C)O)C(=O)N2CCC[C@H]2C(=O)N[C@@H](Cc2ccccc2)C(=O)N(C)[C@@H](Cc2ccccc2)C(=O)N1C [DP-91] ([NMeβAla][NMeA]LTPF[NMeF][NMeI]G[NMeL]LD-Piperidide; lactam N-12)
Reply: 58
